These entries and their values trace back to patent US10738043B2.

Test system: A549 cells
Test: Proliferation Assay (A549 viability, Cell Titer Fluor, 72 hours)
Format: cell-based
Details: Homo sapiens, read-out: EC50 against A549 cell proliferation
Method: A549 cells were routinely maintained in RPMI 1640 media (Gibco catalog number 11875-093) supplemented with 10% dialyzed fetal bovine serum using a humidified incubator (37° C., 5% CO2 and ambient O2). […] The plates were then incubated for 30 minutes (37° C., 5% CO2 and ambient O2) and fluorescence was subsequently read on the Perkin Elmer Envision plate reader. EC50 values were calculated using a four-parameter logistic curve fit.
measurement type: EC50

For reference, reported EC50 for CC(=O)Nc1nnc(C2CCCN(c3ccc(NC(=O)Cc4cccc(OC(F)(F)F)c4)nn3)C2)s1 (stereo not drawn) stands at 100 to 500 nM

The reported EC50 of the compound Cn1ccc(CNC(=O)c2nnc(N3CCC(c4ccc(NC(=O)Cc5ccccn5)nn4)C3)s2)n1 (stereo not drawn) was 100 to 500 nM

The reported EC50 of the compound Cc1cc(OC2CC(F)(F)C2)cc(CC(=O)Nc2ccc(C3CCN(c4nnc(C(=O)NCc5ccccn5)s4)C3)nn2)n1 (stereo not drawn) was < 100 nM

Field EC50 (entry Cn1cc(CC(=O)Nc2nnc(C3CCCN(c4ccc(NC(=O)Cc5cccc(OC(F)(F)F)c5)nn4)C3)s2)cn1 (stereo not drawn) ) reads 500 to 5000 nM

Looking up O=C(Cc1ccccn1)Nc1ccc(C2CCN(c3nnc(C(=O)NCc4cccc(OC(F)(F)F)c4)s3)C2)nn1 (stereo not drawn) , I found its EC50 recorded as < 100 nM

So, NC(=O)c1nnc(N2CCC(c3ccc(NC(=O)Cc4ccccn4)nn3)C2)s1 (stereo not drawn) ? Its EC50 was 500 to 5000 nM

The compound O=C(Cc1cccc(OC(F)(F)F)c1)Nc1ccc(N2CCC(n3cc(C(=O)NCc4ccccn4)nn3)C2)nn1 (stereo not drawn) showed EC50 equal to 500 to 5000 nM

Just so you know, measured EC50 for O=C(Cc1ccccc1)Nc1ccc(N2CCCC(c3nnc(NC(=O)Cc4ccccc4)s3)C2)nn1 (stereo not drawn) came out at 100 to 500 nM

Item: O=C(Cc1ccccn1)Nc1ccc([C@@H]2CCN(c3nnc(C(=O)NCc4cc(C(F)(F)F)ccn4)s3)C2)nn1 | EC50: < 100 nM

Entry Nc1nnc(C2CCN(c3ccc(NC(=O)Cc4cccc(OC(F)(F)F)c4)nn3)C2)s1 (stereo not drawn) — recorded EC50 = 500 to 5000 nM

Quick note, EC50 for O=C(Cc1cccc(OC(F)(F)F)c1)Nc1ccc(N2CCC(c3nnc(NC(=O)Cc4noc5ccccc45)s3)C2)nn1 (stereo not drawn) landed at 100 to 500 nM

get_value(item= O=C(Cc1cccc(OC(F)(F)F)c1)Nc1ccc(C2CCN(c3nnc(NC(=O)Cc4ccccn4)s3)C2)nn1 (stereo not drawn) , readout=EC50) returns 100 to 500 nM

EC50 recorded for this compound, CC(=O)Nc1nnc(C2CCCN(c3nnc(NC(=O)Cc4cccc(OC(F)(F)F)c4)s3)C2)s1 (stereo not drawn) , is 500 to 5000 nM

Entry O=C(Cc1ccccc1)Nc1ccc(N2CCCC(c3nnc(NC(=O)Cc4ccccn4)s3)C2)nn1 (stereo not drawn) — recorded EC50 = 100 to 500 nM

The compound O=C(Cc1cccc(OC(F)(F)F)c1)Nc1ccc(N2CCCC(n3cc(C(=O)NCc4ccccn4)nn3)C2)nn1 (stereo not drawn) showed EC50 equal to 500 to 5000 nM

Looking up O=C(Cc1cccc(OC(F)(F)F)c1)Nc1ccc(N2CCC(c3nnc(NC(=O)CC4CCCCO4)s3)C2)nn1 (stereo not drawn) , I see its EC50 listed as < 100 nM

Quick note, EC50 for O=C(Cc1cccc(OC(F)(F)F)c1)Nc1ccc(N2CCC(c3nnc(NC(=O)Cc4ccccn4)s3)C2)nn1 (stereo not drawn) [Example 17, 2,2,2-trifluoroacetate] landed at < 100 nM

Recorded EC50 (compound O=C(Cc1cccc(OC(F)(F)F)c1)Nc1ccc(N2CCC(c3nnc(NC(=O)Cc4ccc(F)cc4F)s3)C2)nn1 (stereo not drawn) ): 100 to 500 nM

compound Cc1cc(OC2CC(F)(F)C2)cc(CC(=O)Nc2ccc(C3CCN(c4nnc(C(=O)NCc5cc(C(F)(F)F)ccn5)s4)C3)nn2)n1 (stereo not drawn) , EC50 observed: < 100 nM

What the record says about Cc1cccc(CNC(=O)c2nnc(N3CCC(c4ccc(NC(=O)Cc5cccc(C)n5)nn4)C3)s2)n1 (stereo not drawn) : EC50 is < 100 nM

Entry O=C(Cc1ccccn1)Nc1ccc([C@@H]2CCN(c3nnc(C(=O)NCc4cc(C5CC5)ccn4)s3)C2)nn1 , EC50 reported as < 100 nM

The value of EC50 measured for the compound O=C(Cc1ccccn1)Nc1nnc(C2CCCN(c3nnc(NC(=O)Cc4cccc(OC(F)(F)F)c4)s3)C2)s1 (stereo not drawn) turned out to be 100 to 500 nM

Sure, the documented EC50 for CNC(=O)c1nnc(N2CCC(c3ccc(NC(=O)Cc4ccccn4)nn3)C2)s1 (stereo not drawn) is 100 to 500 nM

Sure, the documented EC50 for O=C(Cc1ccccn1)Nc1ccc(N2CCC(c3nnc(NC(=O)Cc4ccccn4)s3)C2)nn1 (stereo not drawn) is 500 to 5000 nM
